# measurement_target: Proteinase-activated receptor 2 (Homo sapiens)
# Sequence (P55085 whole entry): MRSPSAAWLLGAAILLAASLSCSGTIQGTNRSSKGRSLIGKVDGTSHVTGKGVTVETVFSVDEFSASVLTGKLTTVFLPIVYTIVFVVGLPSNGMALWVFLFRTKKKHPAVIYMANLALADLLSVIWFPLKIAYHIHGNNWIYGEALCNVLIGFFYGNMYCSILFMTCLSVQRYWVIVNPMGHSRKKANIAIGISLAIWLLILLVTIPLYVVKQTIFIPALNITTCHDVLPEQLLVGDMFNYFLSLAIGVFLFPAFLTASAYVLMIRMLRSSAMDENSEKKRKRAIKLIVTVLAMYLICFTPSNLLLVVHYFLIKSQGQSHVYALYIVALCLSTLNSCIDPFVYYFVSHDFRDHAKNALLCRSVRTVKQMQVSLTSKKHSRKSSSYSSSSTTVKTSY
# experiment_summary: Antagonist activity at human PAR2 expressed in human A549 cells coexpressing TACR1 assessed as inhibition of substance P-induced IL-8 production by ELISA
# Assay type: cell-based
quantity_name: IC50 (nM)
Number in nM, nothing else.

What IC50 value was documented for this molecule, CC(C)[C@]12O[C@H]1[C@@H]1O[C@]13[C@]1(O[C@H]1C[C@H]1C4=C(CC[C@@]13C)C(=O)OC4)[C@@H]2O [TRIPTOLIDE] ?
23
